# procedure summary: Inhibition of rat liver monoamine oxidase by Lineweaver-Burke plot
Parameter Ki: see the listing below.
Note: unit µM is implicit; provide only the numeric part.

A selection of reference data follows.
COc1ccc(C2CC(c3ccccc3O)=NN2C(=S)Nc2ccccc2)cc1 (configuration not stated)
2.5
COc1cc(C2CC(c3ccccc3O)=NN2C(=S)Nc2ccc(C)cc2)ccc1O (configuration not stated)
75.1
COc1ccc(NC(=S)N2N=C(c3ccccc3O)CC2c2ccc(O)cc2)cc1 (configuration not stated)
39.2
O=C(NCCN1CCOCC1)c1ccc(Cl)cc1 [MOCLOBEMIDE]
2.25
Oc1ccccc1C1=NN(C(=S)Nc2ccccc2)C(c2ccccc2)C1 (configuration not stated)
40.2
COc1ccc(NC(=S)N2N=C(c3ccccc3O)CC2c2ccc(O)c(OC)c2)cc1 (configuration not stated)
60.5

Query: Ki; subject: C#CCN(C)[C@H](C)Cc1ccccc1
1.9

Do the same for Oc1ccc(C2CC(c3ccccc3)=NN2C(=S)Nc2ccccc2)cc1 (configuration not stated) please
40.6

Do the same for COc1ccc(NC(=S)N2N=C(c3ccc(O)cc3O)CC2c2ccc(O)cc2)cc1 (configuration not stated) please
85.5

Do the same for Oc1ccccc1C1=NN(C(=S)Nc2ccccc2)C(c2ccccc2Cl)C1 (configuration not stated) please
18.6

Do the same for C#CCN(C)Cc1ccccc1 please
3.25

Do the same for Oc1ccccc1C1CC(c2ccccc2)=NN1C(=S)Nc1ccccc1 (configuration not stated) please
34.7
